target under test: recombinant rat PIM-3 (Rattus norvegicus, UniProt O70444)
protocol summary: PIM-3 Assay (as Example A)
assay conditions: averaged IC50; 30 μM ATP, 3.75 μM PIM2tide, 0.5 nM PIM-3
Counter-ions that a name gives are not always drawn.
reported metric: IC50 (nM)

a = N[C@H]1CCN([C@@H](c2ccc3nnc(-c4ccc5cccc(OCC6CC6)c5n4)n3c2)C(F)(F)F)C1 (single isomer, unassigned) [Example 10, dihydrochloride]
b = N[C@H]1CCN([C@H](c2ccc3nnc(-c4ccc5ccc(O[C@@H]6CCC[C@H]6O)cc5n4)n3c2)C(F)(F)F)C1 (single isomer, unassigned; diastereomer 2) [Example 320, di-hydrochloride]
QUERY: Between a and b , which one has the lower reported IC50 value? The response must carry the label of the picked entry.
RESULT: b
(b: 0.3 nM, a: 12 nM)

I = CC(C)Oc1cccc2ccc(-c3nnc4ccc(C(N5C[C@@H](O)[C@H](O)C5)C(F)(F)F)cn34)nc12 (single isomer, unassigned)
II = COCC(C)(C)Oc1cc(F)cc2ccc(-c3nnc4ccc([C@@H](N5CC[C@H](N)C5)C(F)(F)F)cn34)nc12 [Example 264, formate]
QUERY: Between I and II , which one has the lower reported IC50 value? The response must carry the label of the picked entry.
RESULT: II

a = CCNC(=O)c1ccc2ccc(-c3nnc4ccc([C@@H](N5CC[C@H](N)C5)C(F)(F)F)cn34)nc2c1 [Example 38, dihydrochloride]
b = CC(C)(O)COc1cc2nc(-c3nnc4ccc([C@@H](N5CC[C@H](N)C5)C(F)(F)F)cn34)ccc2cc1F [Example 302, dihydrochloride]
QUERY: Of a and b , which one carries the higher reported IC50? The response must carry the label of the picked entry.
RESULT: a

----------
target under test: recombinant rat PIM-3 (Rattus norvegicus)
protocol summary: PIM-3 Assay (as Example A)
Assay type: biochemical
assay conditions: averaged IC50; 30 μM ATP, 3.75 μM PIM2tide, 0.5 nM PIM-3
pIC50: −log10 of the molar value. Where a name gives a salt, the structure may show the parent alone.
reported metric: pIC50

QUERY: Indicate its recorded pIC50; the compound in question is CO[C@@H](C)COc1ccc2ccc(-c3nnc4ccc([C@@H](N5CC[C@H](N)C5)C(F)(F)F)cn34)nc2c1 [Example 287, dihydrochloride]
RESULT: 9.15

1 = CCOc1cc2nc(-c3nnc4ccc([C@H](N5CCC(N)(CC)C5)C(F)(F)F)cn34)ccc2cc1F (single isomer, unassigned; diastereomer 2) [Example 245, dihydrochloride]
2 = CC(C)(O)Cc1cc2nc(-c3nnc4ccc([C@H](N5CC[C@H](N)C5)C(F)(F)F)cn34)ccc2cc1F [Example 237, dihydrochloride]
QUERY: Between 1 and 2 , which one has the lower reported pIC50 value? The response must carry the label of the picked entry.
RESULT: 2
(2: 8.74, 1: 9.30)

----------
target under test: recombinant rat PIM-3 (Rattus norvegicus, UniProt O70444)
protocol summary: PIM-3 Assay (as Example A)
assay conditions: averaged IC50; 30 μM ATP, 3.75 μM PIM2tide, 0.5 nM PIM-3
Where a name gives a salt, the structure may show the parent alone.
reported metric: IC50 (nM)

QUERY: Indicate its recorded IC50; the molecule in question is CC(c1ccc2nnc(-c3ccc4cccc(C(C)(C)C)c4n3)n2c1)N1CC[C@H](N)C1 (stereo partly drawn) [Example 17, trihydrochloride]
RESULT: 1.2

QUERY: Indicate its recorded IC50; the molecule in question is CC(C)Oc1cccc2ccc(-c3nnc4ccc([C@@H](N5CCC(N)(CO)C5)C(F)(F)F)cn34)nc12 (stereo partly drawn) [Example 197, dihydrochloride]
RESULT: 0.9
